Target: N-type calcium channel (Homo sapiens, UniProt Q00975)
Construct: expressed in transfected cells
Sequence (Q00975 whole entry): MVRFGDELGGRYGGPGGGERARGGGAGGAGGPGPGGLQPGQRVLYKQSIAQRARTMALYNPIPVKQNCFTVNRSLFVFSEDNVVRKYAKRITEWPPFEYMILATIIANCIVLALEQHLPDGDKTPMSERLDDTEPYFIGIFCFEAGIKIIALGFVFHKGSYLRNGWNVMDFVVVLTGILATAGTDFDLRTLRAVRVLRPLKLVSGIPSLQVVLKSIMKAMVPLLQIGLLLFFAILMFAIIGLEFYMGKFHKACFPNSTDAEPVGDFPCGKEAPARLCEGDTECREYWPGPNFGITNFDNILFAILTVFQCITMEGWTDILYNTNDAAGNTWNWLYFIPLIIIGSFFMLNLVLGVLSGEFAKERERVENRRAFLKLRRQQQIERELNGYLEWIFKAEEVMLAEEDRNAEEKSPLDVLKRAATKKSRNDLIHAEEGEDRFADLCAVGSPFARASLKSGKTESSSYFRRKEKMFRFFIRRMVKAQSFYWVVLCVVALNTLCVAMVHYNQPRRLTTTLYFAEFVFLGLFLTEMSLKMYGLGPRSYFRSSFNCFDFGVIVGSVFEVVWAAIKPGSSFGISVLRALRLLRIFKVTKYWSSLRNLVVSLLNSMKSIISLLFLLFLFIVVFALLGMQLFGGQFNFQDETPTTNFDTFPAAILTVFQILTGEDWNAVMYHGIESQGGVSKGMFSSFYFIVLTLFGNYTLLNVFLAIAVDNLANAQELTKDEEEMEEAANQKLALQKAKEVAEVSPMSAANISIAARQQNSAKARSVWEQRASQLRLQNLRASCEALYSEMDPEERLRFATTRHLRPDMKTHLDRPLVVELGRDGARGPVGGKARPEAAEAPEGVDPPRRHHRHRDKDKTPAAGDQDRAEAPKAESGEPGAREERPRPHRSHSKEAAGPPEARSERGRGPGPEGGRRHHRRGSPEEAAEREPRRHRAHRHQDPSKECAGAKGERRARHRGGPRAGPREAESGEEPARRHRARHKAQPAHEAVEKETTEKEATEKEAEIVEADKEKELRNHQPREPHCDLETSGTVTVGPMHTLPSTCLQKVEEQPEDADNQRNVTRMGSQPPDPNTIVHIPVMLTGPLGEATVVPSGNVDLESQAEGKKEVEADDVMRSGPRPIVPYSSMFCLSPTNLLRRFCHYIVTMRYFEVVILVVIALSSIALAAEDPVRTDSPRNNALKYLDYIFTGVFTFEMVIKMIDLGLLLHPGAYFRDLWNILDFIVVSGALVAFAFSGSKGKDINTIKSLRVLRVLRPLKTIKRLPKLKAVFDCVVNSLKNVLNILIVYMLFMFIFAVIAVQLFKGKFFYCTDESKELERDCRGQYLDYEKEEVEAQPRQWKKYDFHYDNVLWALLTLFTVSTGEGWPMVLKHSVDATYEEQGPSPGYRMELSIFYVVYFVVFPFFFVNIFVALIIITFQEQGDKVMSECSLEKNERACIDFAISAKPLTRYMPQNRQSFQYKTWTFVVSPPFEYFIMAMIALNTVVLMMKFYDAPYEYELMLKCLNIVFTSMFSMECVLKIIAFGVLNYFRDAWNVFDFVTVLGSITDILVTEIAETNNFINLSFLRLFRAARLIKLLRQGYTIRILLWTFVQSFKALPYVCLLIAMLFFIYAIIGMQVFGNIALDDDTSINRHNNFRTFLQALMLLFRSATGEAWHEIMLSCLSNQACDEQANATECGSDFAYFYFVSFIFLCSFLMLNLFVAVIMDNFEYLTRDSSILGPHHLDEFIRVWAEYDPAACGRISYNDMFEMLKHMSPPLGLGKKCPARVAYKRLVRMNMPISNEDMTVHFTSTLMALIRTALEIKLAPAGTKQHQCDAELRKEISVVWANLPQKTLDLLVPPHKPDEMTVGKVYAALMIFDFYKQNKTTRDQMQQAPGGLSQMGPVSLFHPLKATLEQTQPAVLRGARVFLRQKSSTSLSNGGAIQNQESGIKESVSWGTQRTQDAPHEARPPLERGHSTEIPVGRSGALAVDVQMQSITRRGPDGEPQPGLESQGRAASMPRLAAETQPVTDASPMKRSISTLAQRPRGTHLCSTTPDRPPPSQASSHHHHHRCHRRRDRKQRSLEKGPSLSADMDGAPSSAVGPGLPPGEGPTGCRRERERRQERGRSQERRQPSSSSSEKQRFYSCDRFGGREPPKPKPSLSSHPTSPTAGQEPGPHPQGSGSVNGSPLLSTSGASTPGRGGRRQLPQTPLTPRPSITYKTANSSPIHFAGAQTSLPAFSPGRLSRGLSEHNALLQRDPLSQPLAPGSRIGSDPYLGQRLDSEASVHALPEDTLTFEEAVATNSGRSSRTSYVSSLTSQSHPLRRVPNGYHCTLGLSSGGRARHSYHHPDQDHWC
Sequence (P54284 whole entry partner): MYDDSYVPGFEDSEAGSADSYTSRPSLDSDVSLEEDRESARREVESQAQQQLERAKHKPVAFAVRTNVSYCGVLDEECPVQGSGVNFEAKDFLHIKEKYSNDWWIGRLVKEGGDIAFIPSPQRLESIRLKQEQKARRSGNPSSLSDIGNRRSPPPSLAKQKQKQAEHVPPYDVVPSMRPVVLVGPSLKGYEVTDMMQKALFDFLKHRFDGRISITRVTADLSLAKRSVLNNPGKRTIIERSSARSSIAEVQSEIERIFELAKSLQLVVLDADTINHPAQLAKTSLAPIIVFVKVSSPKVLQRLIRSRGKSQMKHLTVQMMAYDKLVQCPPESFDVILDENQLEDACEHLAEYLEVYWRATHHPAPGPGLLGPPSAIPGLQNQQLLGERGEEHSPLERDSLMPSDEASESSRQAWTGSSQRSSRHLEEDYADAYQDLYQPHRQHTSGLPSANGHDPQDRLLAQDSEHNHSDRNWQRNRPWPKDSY
Sequence (P54289 25-956 partner limits assumed): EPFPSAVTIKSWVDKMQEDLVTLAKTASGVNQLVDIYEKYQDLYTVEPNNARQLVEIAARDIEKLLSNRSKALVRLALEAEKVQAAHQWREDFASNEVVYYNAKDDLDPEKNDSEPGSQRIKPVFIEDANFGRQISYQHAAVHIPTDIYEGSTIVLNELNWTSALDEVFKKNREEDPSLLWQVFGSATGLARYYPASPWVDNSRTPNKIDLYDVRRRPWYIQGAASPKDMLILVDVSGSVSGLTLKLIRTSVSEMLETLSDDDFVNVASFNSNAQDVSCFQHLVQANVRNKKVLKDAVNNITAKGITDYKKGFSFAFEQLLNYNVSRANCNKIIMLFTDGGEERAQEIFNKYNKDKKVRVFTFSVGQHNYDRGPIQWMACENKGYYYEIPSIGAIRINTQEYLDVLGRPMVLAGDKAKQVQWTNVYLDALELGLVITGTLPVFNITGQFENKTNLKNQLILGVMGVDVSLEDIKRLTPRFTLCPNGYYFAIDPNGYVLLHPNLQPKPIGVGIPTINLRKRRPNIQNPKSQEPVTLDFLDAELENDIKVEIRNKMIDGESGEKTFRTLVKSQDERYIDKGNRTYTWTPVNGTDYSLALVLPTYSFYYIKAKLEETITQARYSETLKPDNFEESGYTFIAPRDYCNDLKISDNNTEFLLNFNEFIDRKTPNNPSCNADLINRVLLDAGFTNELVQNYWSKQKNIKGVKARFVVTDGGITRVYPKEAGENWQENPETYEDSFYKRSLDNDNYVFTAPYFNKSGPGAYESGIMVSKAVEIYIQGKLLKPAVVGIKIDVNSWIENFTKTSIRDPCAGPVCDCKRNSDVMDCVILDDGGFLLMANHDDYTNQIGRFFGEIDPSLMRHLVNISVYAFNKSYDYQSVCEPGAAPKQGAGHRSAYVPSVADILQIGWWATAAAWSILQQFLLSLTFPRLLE
Sequence (P54289 957-1103 partner limits assumed): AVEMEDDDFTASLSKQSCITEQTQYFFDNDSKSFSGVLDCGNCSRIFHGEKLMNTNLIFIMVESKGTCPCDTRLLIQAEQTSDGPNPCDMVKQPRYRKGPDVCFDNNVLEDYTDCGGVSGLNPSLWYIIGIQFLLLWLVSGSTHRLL
Test: Automated electrophysiology assay (QPatch-HT whole-cell patch clamp)
Assay type: cell-based
Details: 1 μM; low frequency (1st pulse of train); read-out: QPatch at Low Frequency % Inhibition
Test Readout: inhibition at 1 µM (%)

Molecule | Assay System | Test Readout | Experimental Value
COc1ccccc1-n1nc2c(c1-c1ccc(Cl)cc1)CN(S(=O)(=O)N1CCC(C)CC1)C2 | N-type calcium channel (Homo sapiens, UniProt Q00975) | inhibition at 1 µM | 69
CCCC(C)S(=O)(=O)N1Cc2nn(-c3ccccc3OC)c(-c3ccc(Cl)cc3)c2C1 (centres unmarked) | N-type calcium channel (Homo sapiens, UniProt Q00975) | inhibition at 1 µM | 80
COc1ccccc1-n1nc2c(c1-c1ccc(Cl)cc1)CN(S(=O)(=O)C1CC1)C2 | N-type calcium channel (Homo sapiens, UniProt Q00975) | inhibition at 1 µM | 74

P: COc1ccc(-c2c3c(nn2-c2ccccc2OC)CN(S(=O)(=O)C(C)C)C3)cn1
Q: FC(F)(F)Oc1ccccc1-n1nc2c(c1-c1ccc(Cl)cc1)CN(c1ccc3nc(Cl)ccc3c1)C2
R: COc1ccccc1-n1nc2c(c1-c1ccc(Cl)cc1)CN(S(=O)(=O)N(C)C)C2
S: CCc1ccccc1-n1nc2c(c1-c1ccc(Cl)cc1)CN(C(=O)C(F)(F)F)C2
T: COc1ccccc1-n1nc2c(c1-c1ccc(Cl)cc1)CN(S(C)(=O)=O)C2
List from greatest to least inhibition at 1 µM. // rank by listing labels in the order requested R, P, T, S, Q

* * *

Molecular target: N-type calcium channel (Homo sapiens)
Construct: expressed in transfected cells
Assay: Automated electrophysiology assay (QPatch-HT whole-cell patch clamp)
Type: cell-based
Details: 0.1 μM; high frequency (15th pulse of train, 5 Hz); read-out: QPatch at High Frequency % Inhibition
Procedure: Cells were grown in T175 flasks to 50%-90% confluence. […] For cells determined to be in stable whole-cell patch clamp, the EC solution was replaced with a barium (Ba)/triethylammonium (TEA) solution containing 140 mM TEA-Cl, 10 mM BaCl2, 0.8 mM MgCl2, 10 mM glucose and 10 mM HEPES (pH=7.4). […] Data from both the second and third drug application periods were analyzed for each cell. […]
Test Readout: inhibition at 0.1 µM (%)

Item Smiles | Test Readout | Output Unit | Experimental Value
COC(=O)CCS(=O)(=O)N1Cc2nn(-c3ccccc3OC(F)(F)F)c(-c3ccc(Cl)cc3)c2C1 | inhibition at 0.1 µM | % | 36

a: COc1cc(F)ccc1-n1nc2c(c1-c1ccc(Cl)cc1)CN(S(=O)(=O)N1CCC(C)CC1)C2
b: CCS(=O)(=O)N1Cc2nn(-c3ccccc3N(C)C)c(-c3ccc(Cl)cc3)c2C1
c: CCOc1ccccc1-n1nc2c(c1-c1ccc(Cl)cc1)CN(S(C)(=O)=O)C2
List from greatest to least inhibition at 0.1 µM. // rank by listing labels in the order requested b, c, a
(b: 34%, c: 22%, a: -28%)

* * *

Target: N-type calcium channel (Homo sapiens)
Construct: expressed in transfected cells
Test: Automated electrophysiology assay (QPatch-HT whole-cell patch clamp)
Assay type: cell-based
Settings: 0.1 μM; high frequency (15th pulse of train, 5 Hz); read-out: QPatch at High Frequency % Inhibition
Test Readout: inhibition at 0.1 µM (%)

a: CCOc1ccccc1-n1nc2c(c1-c1ccc(Cl)cc1)CN(S(=O)(=O)C1CCCCC1)C2 [Cpd 52]
b: CC(C)CS(=O)(=O)N1Cc2nn(-c3cccc4c3OCO4)c(-c3ccc(Cl)cc3)c2C1 [Cpd 82]
Between item a and item b , which reported inhibition at 0.1 µM is smaller? Please reply using the label of the selected record. b
(b: 15%, a: 50%)

I: COc1ccccc1-n1nc2c(c1-c1ccc(Cl)cc1)CN(S(=O)(=O)N1CCCC1)C2 [Cpd 60]
II: COc1cc(Cl)ccc1-n1nc2c(c1-c1ccc(Cl)cc1)CN(S(=O)(=O)N(C)C)C2 [Cpd 65]
Which numeric inhibition at 0.1 µM is bigger, that of I or that of II ? Please reply using the label of the selected record. I
(I: 44%, II: 1%)

Reference source: patent US8846949B2
